B1: CHIT1 (parent)
chain: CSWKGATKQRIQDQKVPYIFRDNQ

Variants of: B1
Assay info: protein stability index of a GFP-peptide fusion (GPS, HEK-293T) (PSI 1-6); higher = more stable;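 further: lentivirally expressed fusions sorted by FACS into six bins by GFP to DsRed ratio, PSI derived from sequencing read proportions per bin multiplied by bin number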
Condition details: c terminus: a fixed tail appended
Reported protein stability index is given for each of the following variants.

INSERT INTO assay_data (mutations, value_reported) VALUES
  ('C1H', 3.08),
  ('K4G', 2.68),
  ('V16H', 2.27),
  ('V16W', 2.04),
  ('Q14N', 2.91),
  ('C1Q', 2.81);

Prompt line: Return value of protein stability index for input D13H , no commentary.
Response line: 1.78

Prompt line: Identify protein stability index associated with the variant K15I
Response line: 2.44

Prompt line: Assign protein stability index to the following record: T7V
Response line: 2.42

Prompt line: Supply recorded protein stability index for A6E here.
Response line: 2.79

Prompt line: Return protein stability index (reported value) for this variant: T7K
Response line: 2.4
